Entries and their measured IC50 follow.
- Measured on: human ALK2 (Homo sapiens, UniProt Q04771)
- Sequence (Q04771 21-509): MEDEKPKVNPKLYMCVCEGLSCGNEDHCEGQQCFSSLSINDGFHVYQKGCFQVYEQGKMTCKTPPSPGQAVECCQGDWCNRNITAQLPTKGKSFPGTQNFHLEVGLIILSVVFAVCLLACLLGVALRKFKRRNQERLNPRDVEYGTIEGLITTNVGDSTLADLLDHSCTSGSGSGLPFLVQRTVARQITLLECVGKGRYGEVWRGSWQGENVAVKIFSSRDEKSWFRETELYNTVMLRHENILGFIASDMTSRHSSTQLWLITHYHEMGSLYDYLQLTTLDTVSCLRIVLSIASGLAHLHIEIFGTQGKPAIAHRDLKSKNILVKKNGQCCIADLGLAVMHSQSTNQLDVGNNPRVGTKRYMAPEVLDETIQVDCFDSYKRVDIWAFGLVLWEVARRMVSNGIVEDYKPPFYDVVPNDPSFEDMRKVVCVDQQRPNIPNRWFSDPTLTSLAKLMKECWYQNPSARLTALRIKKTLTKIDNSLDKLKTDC
- Assay: Activin-Like Kinase 2 (ALK2) enzyme assay
- Type: biochemical

{"columns": ["Compound", "IC50"],
 "data": [
  ["CCCS(=O)(=O)Nc1cc(OC)cc(-c2cc(-c3ccc(N4CCNCC4)cc3)cnc2C)c1 [CSLP10]", "> 10 nM"],
  ["COc1cc(-c2cc(-c3ccc(N4CCNCC4)cc3)cnc2N)cc(NS(=O)(=O)C(C)C)c1C [CSLP25]", "> 1000 nM"],
  ["CCCS(=O)(=O)Nc1cc(-c2cc(-c3ccc(N4CCNCC4)cc3)cnc2N)cc(F)c1OC [CSLP37]", "> 100 nM"],
  ["CCCS(=O)(=O)Nc1cc(-c2cc(-c3ccc(N4CCNCC4)cc3)cnc2N)cc(Cl)c1OC [CSLP35]", "> 100 nM"]
]}
